tested.target: PI3Kdelta (Homo sapiens (Human), UniProt O00329)
Sequence (O00329 whole entry, canonical isoform): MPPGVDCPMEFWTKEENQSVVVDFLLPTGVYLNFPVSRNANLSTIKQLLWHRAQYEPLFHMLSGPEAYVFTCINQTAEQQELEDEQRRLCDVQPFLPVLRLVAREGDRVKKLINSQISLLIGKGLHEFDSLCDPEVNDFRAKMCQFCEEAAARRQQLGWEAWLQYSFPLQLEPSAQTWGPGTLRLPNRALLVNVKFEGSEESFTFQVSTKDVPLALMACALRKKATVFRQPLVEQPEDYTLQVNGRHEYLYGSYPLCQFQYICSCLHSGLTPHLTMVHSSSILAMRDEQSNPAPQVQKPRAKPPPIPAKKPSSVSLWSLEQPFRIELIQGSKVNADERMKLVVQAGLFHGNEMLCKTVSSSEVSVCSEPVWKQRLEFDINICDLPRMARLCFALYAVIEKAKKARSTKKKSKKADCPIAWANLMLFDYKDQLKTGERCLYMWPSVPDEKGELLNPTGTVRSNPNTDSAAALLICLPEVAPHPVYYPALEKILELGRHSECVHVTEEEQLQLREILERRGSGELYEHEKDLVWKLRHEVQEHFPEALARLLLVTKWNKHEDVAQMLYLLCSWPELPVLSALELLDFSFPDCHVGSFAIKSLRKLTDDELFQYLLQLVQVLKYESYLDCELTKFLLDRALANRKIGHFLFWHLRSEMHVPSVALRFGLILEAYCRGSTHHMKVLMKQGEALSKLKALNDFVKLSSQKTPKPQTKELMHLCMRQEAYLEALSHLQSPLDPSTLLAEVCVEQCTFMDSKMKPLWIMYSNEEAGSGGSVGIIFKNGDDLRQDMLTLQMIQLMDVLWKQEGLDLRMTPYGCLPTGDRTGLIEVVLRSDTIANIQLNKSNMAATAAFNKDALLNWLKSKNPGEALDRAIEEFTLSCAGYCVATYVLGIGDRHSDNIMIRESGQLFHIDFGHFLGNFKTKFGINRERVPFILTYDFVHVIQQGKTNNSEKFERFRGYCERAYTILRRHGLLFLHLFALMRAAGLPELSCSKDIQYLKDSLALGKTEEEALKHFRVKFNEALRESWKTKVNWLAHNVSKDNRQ
Sequence (P27986 whole entry partner, canonical isoform): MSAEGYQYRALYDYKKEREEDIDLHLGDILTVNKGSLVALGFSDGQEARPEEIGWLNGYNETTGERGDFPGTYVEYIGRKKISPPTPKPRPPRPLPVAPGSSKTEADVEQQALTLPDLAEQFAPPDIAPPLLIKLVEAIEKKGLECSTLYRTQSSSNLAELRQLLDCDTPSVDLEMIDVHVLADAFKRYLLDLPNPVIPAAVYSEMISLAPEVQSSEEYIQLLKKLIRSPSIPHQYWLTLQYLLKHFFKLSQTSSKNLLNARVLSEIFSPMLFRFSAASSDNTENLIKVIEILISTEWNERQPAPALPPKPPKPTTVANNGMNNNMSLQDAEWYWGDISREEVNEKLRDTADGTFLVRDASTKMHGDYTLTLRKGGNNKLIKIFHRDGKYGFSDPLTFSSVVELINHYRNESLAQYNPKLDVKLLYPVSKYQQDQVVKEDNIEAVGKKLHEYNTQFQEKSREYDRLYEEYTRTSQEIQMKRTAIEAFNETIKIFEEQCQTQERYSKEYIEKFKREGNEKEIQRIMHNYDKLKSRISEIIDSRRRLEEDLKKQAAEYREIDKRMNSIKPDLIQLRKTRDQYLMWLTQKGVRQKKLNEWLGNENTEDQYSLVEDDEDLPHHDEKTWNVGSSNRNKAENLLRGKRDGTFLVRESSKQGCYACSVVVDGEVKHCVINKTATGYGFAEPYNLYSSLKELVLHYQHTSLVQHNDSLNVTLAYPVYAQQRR
assay.explanation: HTRF PI3K biochemical assay, delta isoform
condition.parameters: 0.3 nM enzyme, 100 uM ATP, 5 uM PIP2, form screened per table
measure.name: IC50 (nM)

- molecule: "C[C@@H]1CN(c2ncc(C#N)c(-c3cn(C)nc3N)n2)CCN1C(=O)C1CC1 [Compound 6-14]"
  tested.target: "PI3Kdelta (Homo sapiens (Human), UniProt O00329)"
  output.unit: "nM"
  IC50: 21

I. CC(C)c1cnc(-c2cnc(N3CCN(C(=O)C4CC4)[C@H](C)C3)nc2-c2cnn(C)c2)o1 [Compound 5-5]
II. COc1cccc(N2C[C@@H]3CC2CN3c2nc(-c3cnn(C)c3)ncc2C#N)c1 (stereo in doubt) [Compound 1-14]
III. C[C@@H]1CN(c2cc(C#N)nc(-c3cnn(C)c3)n2)CCN1C(=O)C1CC1 [Compound 5-3]
IV. CC(C)Nc1nc(-c2cnn(C)c2)nc(N2CCN(C(=O)C3CC3)[C@H](C)C2)c1C#N [Compound 6-20]
Prompt: rank_up(items): orders items by reported IC50 in ascending numerical order. # respond with the labels, arranged in the requested order
Completion: II, IV, III, I

----------
Below, each entry is listed alongside its reported Selectivity versus PI3Kalpha.
tested.target: PI3Kalpha (Homo sapiens (Human), UniProt P42336)
Sequence (P42336 whole entry, one chain of several, canonical isoform): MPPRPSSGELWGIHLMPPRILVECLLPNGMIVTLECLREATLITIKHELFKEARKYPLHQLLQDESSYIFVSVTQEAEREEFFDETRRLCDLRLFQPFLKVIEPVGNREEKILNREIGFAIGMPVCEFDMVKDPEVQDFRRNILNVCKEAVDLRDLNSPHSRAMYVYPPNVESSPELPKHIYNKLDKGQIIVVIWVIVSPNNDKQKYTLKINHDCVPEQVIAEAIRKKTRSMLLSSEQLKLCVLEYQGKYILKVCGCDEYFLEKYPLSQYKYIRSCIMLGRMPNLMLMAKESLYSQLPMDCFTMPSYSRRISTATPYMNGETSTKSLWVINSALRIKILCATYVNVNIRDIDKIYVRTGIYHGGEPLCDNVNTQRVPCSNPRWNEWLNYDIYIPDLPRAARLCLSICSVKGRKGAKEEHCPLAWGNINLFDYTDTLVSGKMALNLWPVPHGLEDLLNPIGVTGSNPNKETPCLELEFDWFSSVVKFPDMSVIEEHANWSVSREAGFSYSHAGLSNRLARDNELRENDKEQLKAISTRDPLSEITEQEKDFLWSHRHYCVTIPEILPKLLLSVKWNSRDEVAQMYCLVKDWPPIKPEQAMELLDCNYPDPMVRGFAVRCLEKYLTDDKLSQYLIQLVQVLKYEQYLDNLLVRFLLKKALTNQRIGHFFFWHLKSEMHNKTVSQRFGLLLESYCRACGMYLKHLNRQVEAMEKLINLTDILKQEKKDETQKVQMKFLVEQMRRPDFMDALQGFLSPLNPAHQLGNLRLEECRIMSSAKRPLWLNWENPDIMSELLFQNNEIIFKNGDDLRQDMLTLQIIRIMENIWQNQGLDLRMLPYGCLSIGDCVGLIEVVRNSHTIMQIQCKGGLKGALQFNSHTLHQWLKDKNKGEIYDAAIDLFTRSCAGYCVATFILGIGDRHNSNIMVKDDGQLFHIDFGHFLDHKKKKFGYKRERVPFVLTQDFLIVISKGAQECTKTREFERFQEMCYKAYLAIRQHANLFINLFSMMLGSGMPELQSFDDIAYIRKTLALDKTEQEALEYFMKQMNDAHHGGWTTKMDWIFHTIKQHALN
assay.explanation: HTRF PI3K biochemical assay, alpha isoform (selectivity versus delta)
condition.parameters: relative ratio PI3K-alpha IC50 value / PI3K-delta IC50 value
Source text: HTRF PI3K Biochemical Assay to Measure Intrinsic Potency of Compound Inhibitors The PI3-Kinase biochemical assays were developed to measure the intrinsic potency and compound dependent inhibition of the alpha, beta, delta, and gamma PI3K isoform enzymes. […]

Use the examples below as a reference point.
- compound: "Cn1cc(-c2ncc(C#N)c(N3CC4C[C@H]3CN4c3cccc(-n4cccc4)c3)n2)cn1 (stereo in doubt)"
  tested.target: "PI3Kalpha (Homo sapiens (Human), UniProt P42336)"
  readout.value: ">10"
- compound: "N#Cc1cnc(N2CCc3[nH]ncc3C2)nc1N1CC2C[C@H]1CN2c1cccc(F)c1 (stereo in doubt)"
  tested.target: "PI3Kalpha (Homo sapiens (Human), UniProt P42336)"
  readout.value: 10
- compound: "C[C@@H]1CN(c2ncc(C#N)c(-c3cn(C)nc3N)n2)CCN1C(=O)C1CC1"
  tested.target: "PI3Kalpha (Homo sapiens (Human), UniProt P42336)"
  readout.value: ">10"
- compound: "CC(C)CNc1nc(-c2cnn(C)c2)nc(N2CCN(C(=O)C3CC3)[C@H](C)C2)c1C#N"
  tested.target: "PI3Kalpha (Homo sapiens (Human), UniProt P42336)"
  readout.value: ">10"
- compound: "C[C@@H]1CN(c2ncc(C#CCO)c(-c3cnn(C)c3)n2)CCN1C(=O)C1CC1"
  tested.target: "PI3Kalpha (Homo sapiens (Human), UniProt P42336)"
  readout.value: ">10"

Selectivity versus PI3Kalpha reading for C[C@@H]1C[C@H]1C(=O)N1CCN(c2nc(-c3cnn(C)c3)ncc2C#N)C[C@H]1C : >10

Documented Selectivity versus PI3Kalpha of Cn1cc(-c2ncc(C#N)c(N3CC4C[C@H]3CN4c3cccc(S(C)(=O)=O)c3)n2)cn1 (stereo in doubt) : >10

# Selectivity versus PI3Kalpha (compound: N#Cc1cnc(-c2ccnc3[nH]ccc23)nc1N1C[C@@H]2CC1CN2c1cccc(F)c1 (stereo in doubt) ) is >10

Reported Selectivity versus PI3Kalpha ( Cn1cc(-c2ncc(C#N)c(N3CC4C[C@H]3CN4C(=O)CC3COC3)n2)cn1 (stereo in doubt) ) = 10

Recorded result, N#Cc1cnc(-c2cnn3ccccc23)nc1N1C[C@@H]2CC1CN2c1cccc(F)c1 (stereo in doubt) , Selectivity versus PI3Kalpha: >10

Selectivity versus PI3Kalpha recorded for this compound, C[C@@H]1CN(c2nc(C#N)cc(-c3cnn(C)c3)n2)CCN1C(=O)C1CC1 , is >10

Sample COCC1(C(=O)N2C[C@@H]3CC2CN3c2nc(-c3cnn(C)c3)ncc2C#N)CC1 (stereo in doubt) ; Selectivity versus PI3Kalpha observed: >10

Measured Selectivity versus PI3Kalpha of C[C@@H]1CN(c2nc(-c3cnn(C)c3)ncc2C#N)CCN1c1cccc(F)c1 : >10

Value of Selectivity versus PI3Kalpha reported for the compound C[C@@H]1CN(c2nc(-c3cnn(C)c3)ncc2C#N)CCN1C(=O)C1CC1 is >10

GET /value?item= C[C@@H]1CN(c2nc(-c3cnn(C)c3)nc(NC(=O)NC3CCC3)c2C#N)CCN1C(=O)C1CC1 &field=Selectivity versus PI3Kalpha returns >10

Recorded result, CCOC(=O)c1cnc(N2CCN(C(=O)C3CC3)[C@H](C)C2)nc1-c1cnn(C)c1 , Selectivity versus PI3Kalpha: >10

Measured Selectivity versus PI3Kalpha, Cn1cc(-c2ncc(C#N)c(N3CC4C[C@H]3CN4C(=O)C(C)(C)CF)n2)cn1 (stereo in doubt) : >10

----------
tested.target: PI3Kdelta (Homo sapiens (Human))
assay.explanation: HTRF PI3K biochemical assay, delta isoform
condition.parameters: 0.3 nM enzyme, 100 uM ATP, 5 uM PIP2, form screened per table
measure.name: IC50 (µM)

1. C[C@@H]1CN(c2nc(C#N)cc(-c3cnn(C)c3)n2)CCN1C(=O)C1CC1 [Compound 5-2]
2. C[C@@H]1CN(c2nc(-c3cnn(C)c3)ncc2C#N)CCN1c1cccc(S(C)(=O)=O)c1 [Compound 4-13]
Prompt: Given the listed items, does 1 or 2 have the lesser reported IC50? Answer by stating the label of the chosen item.
Completion: 2

I. C[C@@H]1CN(c2nc(-c3cnn(C)c3)ncc2C#N)CCN1c1cccc(C#N)c1 [Compound 4-12]
II. C[C@@H]1CN(c2nc(-c3cnn(C)c3)ncc2C#N)CCN1C(=O)C1CCCC1 [Compound 4-6]
Prompt: Between I and II , which one shows the smaller IC50 number? Identify your pick by its label.
Completion: I
(I: 0.086 µM, II: 0.87 µM)

----------
tested.target: PI3Kdelta (Homo sapiens (Human))
assay.explanation: HTRF PI3K biochemical assay, delta isoform
condition.parameters: 0.3 nM enzyme, 100 uM ATP, 5 uM PIP2, form screened per table
measure.name: IC50 (nM)

- compound: "Cn1cc(-c2ncc(C#N)c(N3CC4C[C@H]3CN4c3cccc(S(C)(=O)=O)c3)n2)cn1 (stereo in doubt)"
  output.unit: "nM"
  readout.value: 27
- compound: "C[C@@H]1CN(c2ncc(C#N)c(-c3cnn(C)c3)n2)CCN1C(=O)C1CC1"
  output.unit: "nM"
  readout.value: 21
- compound: "C[C@@H]1CN(c2ncc(C#N)c(-c3cn(C)nc3C#N)n2)CCN1C(=O)C1CC1"
  output.unit: "nM"
  readout.value: 180

A. Cn1cc(-c2ncc(C#N)c(N3CC4C[C@H]3CN4C(=O)C(C)(C)C)n2)cn1 (stereo in doubt)
B. C[C@@H]1CN(c2nc(-c3cnn(C)c3)ncc2C#N)CCN1C(=O)C1CCC1
C. Cn1cc(-c2ncc(C#N)c(N3C[C@H]4C[C@H]3CN4c3cccc([N+](=O)[O-])c3)n2)cn1
Prompt: Hey, quick one: sort these by IC50, low to high? Provide the labels, sequenced as the question asks.
Completion: C, A, B

----------
tested.target: UniProt O00329
assay.explanation: HTRF PI3K biochemical assay, delta isoform
condition.parameters: 0.3 nM enzyme, 100 uM ATP, 5 uM PIP2, form screened per table
pIC50: −log10 of the molar value.
measure.name: pIC50

- compound: "Cn1cc(-c2ncc(C#N)c(N3CC4C[C@H]3CN4c3cccc(OCCF)c3)n2)cn1 (stereo in doubt)"
  tested.target: "UniProt O00329"
  pIC50: 7.10
- compound: "C[C@@H]1CN(c2nc(-c3cnn(C)c3)nc(Cl)c2C#N)CCN1C(=O)C1CC1"
  tested.target: "UniProt O00329"
  pIC50: 6.85
- compound: "N#Cc1cnc(-c2cccc3cnccc23)nc1N1C[C@@H]2CC1CN2c1cccc(F)c1 (stereo in doubt)"
  tested.target: "UniProt O00329"
  pIC50: 6.96
- compound: "Cc1cncc(-c2ncc(C#N)c(N3C[C@@H]4CC3CN4c3cccc(F)c3)n2)c1 (stereo in doubt)"
  tested.target: "UniProt O00329"
  pIC50: 6.54
- compound: "C[C@@H]1CN(c2nc(Cl)c(C#N)c(-c3cnn(C)c3)n2)CCN1C(=O)C1CC1"
  tested.target: "UniProt O00329"
  pIC50: 7.52

A. C[C@@H]1CN(c2nc(-c3cnn(C)c3)nc(N)c2C#N)CCN1C(=O)C1CC1
B. CCC(=O)N1CCN(c2nc(-c3cnn(C)c3)ncc2C#N)C[C@H]1C
Prompt: Smaller pIC50 value? Options are A and B Answer format: the label of the selected item.
Completion: B

Origin of the recorded values: patent US11230547B2
